Source: PubChem BioAssay

- Target Under Test: Voltage-gated potassium channel subunit beta-2 (Rattus norvegicus) (UniProt P62483)
- Sequence (P62483 whole entry, looked up): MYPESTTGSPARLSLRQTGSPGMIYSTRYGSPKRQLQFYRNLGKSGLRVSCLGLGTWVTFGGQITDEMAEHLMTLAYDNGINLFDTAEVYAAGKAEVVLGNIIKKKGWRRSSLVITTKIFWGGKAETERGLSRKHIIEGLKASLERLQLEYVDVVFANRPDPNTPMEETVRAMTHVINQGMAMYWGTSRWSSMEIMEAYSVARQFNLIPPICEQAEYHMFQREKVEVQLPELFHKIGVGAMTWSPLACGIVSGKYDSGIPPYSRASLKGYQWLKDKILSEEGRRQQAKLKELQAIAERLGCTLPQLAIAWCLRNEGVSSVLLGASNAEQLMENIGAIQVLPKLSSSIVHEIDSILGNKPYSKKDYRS
- Assay Details: KvBeta enzyme negative modulators, primary screen, biochemical, NADPH fluorescence (AID 622);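 further: slope of raw intensity against log time taken from 70 to 1610 s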
- Test Context: recombinant KvBeta, 4-cyanobenzaldehyde reduction, at 10 µM, stronger effect = higher value
# key: entry, value: fluorescence slope
Readout Label: fluorescence slope

O=C(CSc1nnc(-c2ccncc2)o1)Oc1ccccc1: -0.39
CCn1c(=O)c(=O)[nH]c2cc(C(=O)N3CCN(c4ccccc4F)CC3)ccc21: -0.594
COc1ccc(N2CCN(CCNC(=O)CCS(=O)(=O)c3cccc4nsnc34)CC2)cc1: -0.598
Cc1ccc(-c2nn(CCC(=O)NCC3CCCO3)c(=O)c3ccccc23)cc1 (stereo not drawn): -0.422
COc1ccccc1N1CCN(C(=O)c2c(-c3c(Cl)cccc3Cl)noc2C)CC1: -0.377
CCc1nc(N2CCCC2)c(C#N)c2c1CCCC2: -0.506
CCOC(=O)c1[nH]c2ccccc2c1N=CN(CC)CC: -0.472
Cc1ccc(-c2nn(-c3ccccc3)cc2CN(Cc2ccccc2)C(=O)CCC(=O)O)o1: -0.429
O=c1[nH]c2sc3c(c2c2nncn12)CCCC3: -0.499
CCCCSc1cc(C)nc2ncnn12: -0.492
Cn1c(NC(=O)c2cccc(Cn3cc(Cl)cn3)c2)nc2ccccc21: -0.548
CCC(C)(C(=O)NC1CCCC1)N(C(=O)c1cnccn1)c1c(C)n(C)n(-c2ccccc2)c1=O (stereo not drawn): -0.471
CCOC(=O)c1sc2nc(NC(=O)C3CCCCC3)sc2c1C: -0.533
O=C(O)c1ccc(C2CCCCC2)cn1: -0.444
COC(=O)c1cc(S(=O)(=O)N2CCC(C)CC2)ccc1F: -0.452
CCCC(CCC(=O)Nc1ccc(C(=O)OCC)cc1)C(=O)O (stereo not drawn): -0.484
CN(c1ccc(OCc2nnc(-c3ccccc3)o2)cc1)S(=O)(=O)c1ccccc1: -0.335
Cc1ccc(C(=O)NCc2ccc3c(c2)OCO3)cc1S(=O)(=O)N1CCCCC1: -0.451
Cc1nc(NCCCO)c(C#N)c2c1COC(C)(C)C2: -0.432
O=C(NCCc1ccccc1)/C(=N\O)c1ccccc1: -0.404
COC(=O)C1=C(C)OC(N)=C(C#N)C1c1c(C)nn(-c2ccccc2)c1Cl (stereo not drawn): -0.524
COc1cc(NC(=O)CSCc2cnn(-c3ccccc3)c2-n2cccc2)cc(OC)c1: -0.315
CCOCCCNC(=O)CN1CCN(Cc2ccccc2C)C1=O: -0.574

* * *

# key: entry, value: z-score
- Assay Details: DUSP6 inhibitors restoring Erk phosphorylation by chemical complementation, primary imaging in DUSP6-transfected HeLa (AID 609)
- Test Context: HeLa MKP-3 transfected, phospho-Erk imaging KS statistic; measured here: nuclear c-Myc green intensity z-score; at 10 µM; cells stimulated with TPA for 15 min
Readout Label: z-score

COc1cccc(C(=O)OC2CCCN(C)C2)c1 (stereo unspecified): 1.21
COc1ccccc1NC(=O)Nc1nnc(C(C)C)s1: -0.311
O=C(CC1SC2=NCCN2C1=O)Nc1ccccc1 (stereo unspecified): 0.509
CC1(C)Cc2c(C#N)c(OCC(=O)c3ccccc3)nc(-c3ccoc3)c2CO1: -1.5
Cn1c(OCc2cccnc2)nc2c1c(=O)n(Cc1ccccc1)c(=O)n2C: -0.255
Cc1cccc(-c2nnc3n2N=C(c2ccccc2)CS3)c1: -0.93
Cc1cc2c(c(=O)n1Cc1ccccn1)C(c1ccc3c(c1)OCO3)C(C#N)=C(N)O2 (stereo unspecified): 2.34
COc1ccc(C2/C(=C(\O)c3ccc4c(c3)OCCO4)C(=O)C(=O)N2CCCN(C)C)cc1 (stereo unspecified): 0.887
Cc1ccc(S(=O)(=O)N(CC(O)CN2CCOCC2)c2cc(Cl)ccc2Cl)cc1 (stereo unspecified): 1.14
COc1cccc(-c2nc(N3CCCCC3C)c3ccccc3n2)c1O (stereo unspecified): 1.23
COc1ccc(C2C(C#N)=C(C)NC3=C2C(=O)c2ccccc23)cc1 (stereo unspecified): 1.69
